Recorded values, source paper doi:10.1101/2023.04.18.537371v1.

- assay.method.text: Tissue distribution in SD rats after single subcutaneous injection
- Assay type: in vivo, SD rat
- recorded.conditions: male, SD, rat, plasma, sc, 10 mg/kg
Peptide text beside a SMILES is read from it.
observation.type: Cmax
Output should be the measured figure followed by the unit it is expressed in.

Bench note: what Cmax did CC(C)[C@@H](NC(=O)[C@H](N)Cc1ccc(O)cc1)C(=O)N[C@H](CC(=O)O)C(=O)N[C@H](CCCCN)C(=O)N[C@H](CCCNC(=N)N)C(=O)O [FC-12738, (D-Tyr)-(D-Val)-(D-Asp)-(D-Lys)-(D-Arg)] (HELM PEPTIDE1{[dY].[dV].[dD].[dK].[dR]}$$$$V2.0) show?
14200 ng/mL

---

- assay.method.text: Single-dose pharmacokinetics in beagle dogs
- Type: in vivo, beagle dog
- recorded.conditions: male, beagle, dog, plasma, sc, 5 mg/kg
Peptide text beside a SMILES is read from it.
observation.type: half-life (min)
Write it as a number; the unit min goes unstated.

Bench note: what half-life did CC(C)[C@@H](NC(=O)[C@H](N)Cc1ccc(O)cc1)C(=O)N[C@H](CC(=O)O)C(=O)N[C@H](CCCCN)C(=O)N[C@H](CCCNC(=N)N)C(=O)O [FC-12738, (D-Tyr)-(D-Val)-(D-Asp)-(D-Lys)-(D-Arg)] (HELM PEPTIDE1{[dY].[dV].[dD].[dK].[dR]}$$$$V2.0) show?
53

---

- assay.method.text: Plasma stability
- Assay type: in vitro ADME, cynomolgus monkey
- recorded.conditions: monkey, plasma
Peptide text beside a SMILES is read from it.
observation.type: remaining at 1 h, 2 μM
Output should be the measured figure followed by the unit it is expressed in.

Bench note: what remaining at 1 h, 2 μM did CC(C)[C@@H](NC(=O)[C@H](N)Cc1ccc(O)cc1)C(=O)N[C@H](CC(=O)O)C(=O)N[C@H](CCCCN)C(=O)N[C@H](CCCNC(=N)N)C(=O)O [FC-12738, (D-Tyr)-(D-Val)-(D-Asp)-(D-Lys)-(D-Arg)] (HELM PEPTIDE1{[dY].[dV].[dD].[dK].[dR]}$$$$V2.0) show?
105%

---

- assay.method.text: In vitro protein binding, rapid equilibrium dialysis
- Type: in vitro ADME
- recorded.conditions: cynomolgus monkey, plasma
Peptide text beside a SMILES is read from it.
observation.type: fraction unbound at 6 h, 0.2 µM
Write the value as a bare number.

Bench note: what fraction unbound at 6 h, 0.2 µM did CC(C)[C@@H](NC(=O)[C@H](N)Cc1ccc(O)cc1)C(=O)N[C@H](CC(=O)O)C(=O)N[C@H](CCCCN)C(=O)N[C@H](CCCNC(=N)N)C(=O)O [FC-12738, (D-Tyr)-(D-Val)-(D-Asp)-(D-Lys)-(D-Arg)] (HELM PEPTIDE1{[dY].[dV].[dD].[dK].[dR]}$$$$V2.0) show?
0.538

---

- assay.method.text: Plasma stability
- Assay type: in vitro ADME, beagle dog
- recorded.conditions: beagle, dog, plasma
Peptide text beside a SMILES is read from it.
observation.type: remaining at 1 h, 2 μM (%)
Write it as a number; the unit % goes unstated.

Bench note: what remaining at 1 h, 2 μM did CC(C)[C@@H](NC(=O)[C@H](N)Cc1ccc(O)cc1)C(=O)N[C@H](CC(=O)O)C(=O)N[C@H](CCCCN)C(=O)N[C@H](CCCNC(=N)N)C(=O)O [FC-12738, (D-Tyr)-(D-Val)-(D-Asp)-(D-Lys)-(D-Arg)] (HELM PEPTIDE1{[dY].[dV].[dD].[dK].[dR]}$$$$V2.0) show?
106

---

- assay.method.text: Excretion study in SD rats following single subcutaneous administration
- Assay type: in vivo, SD rat
- recorded.conditions: male, Sprague-Dawley, rat, feces, sc, 10 mg/kg
Peptide text beside a SMILES is read from it.
observation.type: dose excreted at 168 h (%)
Write it as a number; the unit % goes unstated.

Bench note: what dose excreted at 168 h did CC(C)[C@@H](NC(=O)[C@H](N)Cc1ccc(O)cc1)C(=O)N[C@H](CC(=O)O)C(=O)N[C@H](CCCCN)C(=O)N[C@H](CCCNC(=N)N)C(=O)O [FC-12738, (D-Tyr)-(D-Val)-(D-Asp)-(D-Lys)-(D-Arg)] (HELM PEPTIDE1{[dY].[dV].[dD].[dK].[dR]}$$$$V2.0) show?
2.19

---

- assay.method.text: Plasma and brain levels in male CD-1 mice after a single IP dose
- Type: in vivo, CD-1 mouse
- recorded.conditions: male, CD-1, mouse, plasma, ip, 10 mg/kg
Peptide text beside a SMILES is read from it.
observation.type: level at 2 h (ng/mL)
Write it as a number; the unit ng/mL goes unstated.

Bench note: what level at 2 h did CC(C)[C@@H](NC(=O)[C@H](N)Cc1ccc(O)cc1)C(=O)N[C@H](CC(=O)O)C(=O)N[C@H](CCCCN)C(=O)N[C@H](CCCNC(=N)N)C(=O)O [FC-12738, (D-Tyr)-(D-Val)-(D-Asp)-(D-Lys)-(D-Arg)] (HELM PEPTIDE1{[dY].[dV].[dD].[dK].[dR]}$$$$V2.0) show?
627

---

- assay.method.text: Excretion study in SD rats following single subcutaneous administration
- Type: in vivo, SD rat
- recorded.conditions: male, Sprague-Dawley, rat, bile, sc, 10 mg/kg
Peptide text beside a SMILES is read from it.
observation.type: dose excreted at 24 h (%)
Write it as a number; the unit % goes unstated.

Bench note: what dose excreted at 24 h did CC(C)[C@@H](NC(=O)[C@H](N)Cc1ccc(O)cc1)C(=O)N[C@H](CC(=O)O)C(=O)N[C@H](CCCCN)C(=O)N[C@H](CCCNC(=N)N)C(=O)O [FC-12738, (D-Tyr)-(D-Val)-(D-Asp)-(D-Lys)-(D-Arg)] (HELM PEPTIDE1{[dY].[dV].[dD].[dK].[dR]}$$$$V2.0) show?
0.324

---

- assay.method.text: Excretion study in SD rats following single subcutaneous administration
- Type: in vivo, SD rat
- recorded.conditions: male, Sprague-Dawley, rat, urine + feces, sc, 10 mg/kg
Peptide text beside a SMILES is read from it.
observation.type: dose excreted at 144 h (%)
Write it as a number; the unit % goes unstated.

Bench note: what dose excreted at 144 h did CC(C)[C@@H](NC(=O)[C@H](N)Cc1ccc(O)cc1)C(=O)N[C@H](CC(=O)O)C(=O)N[C@H](CCCCN)C(=O)N[C@H](CCCNC(=N)N)C(=O)O [FC-12738, (D-Tyr)-(D-Val)-(D-Asp)-(D-Lys)-(D-Arg)] (HELM PEPTIDE1{[dY].[dV].[dD].[dK].[dR]}$$$$V2.0) show?
88.9

---

- assay.method.text: Plasma stability
- Assay type: in vitro ADME, cynomolgus monkey
- recorded.conditions: monkey, plasma
Peptide text beside a SMILES is read from it.
observation.type: remaining at 10 min, 2 μM (%)
Write it as a number; the unit % goes unstated.

Bench note: what remaining at 10 min, 2 μM did CC(C)[C@@H](NC(=O)[C@H](N)Cc1ccc(O)cc1)C(=O)N[C@H](CC(=O)O)C(=O)N[C@H](CCCCN)C(=O)N[C@H](CCCNC(=N)N)C(=O)O [FC-12738, (D-Tyr)-(D-Val)-(D-Asp)-(D-Lys)-(D-Arg)] (HELM PEPTIDE1{[dY].[dV].[dD].[dK].[dR]}$$$$V2.0) show?
105

---

- assay.method.text: Plasma and brain levels in male CD-1 mice after a single IP dose
- Format: in vivo, CD-1 mouse
- recorded.conditions: male, CD-1, mouse, brain homogenate, ip, 10 mg/kg
Peptide text beside a SMILES is read from it.
observation.type: level at 1 h (ng/mL)
Write it as a number; the unit ng/mL goes unstated.

Bench note: what level at 1 h did CC(C)[C@@H](NC(=O)[C@H](N)Cc1ccc(O)cc1)C(=O)N[C@H](CC(=O)O)C(=O)N[C@H](CCCCN)C(=O)N[C@H](CCCNC(=N)N)C(=O)O [FC-12738, (D-Tyr)-(D-Val)-(D-Asp)-(D-Lys)-(D-Arg)] (HELM PEPTIDE1{[dY].[dV].[dD].[dK].[dR]}$$$$V2.0) show?
8.93

---

- assay.method.text: Tissue distribution in SD rats after single subcutaneous injection
- Type: in vivo, SD rat
- recorded.conditions: male, SD, rat, spleen, sc, 10 mg/kg
Peptide text beside a SMILES is read from it.
observation.type: tissue level at time at 2 h
Output should be the measured figure followed by the unit it is expressed in.

Bench note: what tissue level at time at 2 h did CC(C)[C@@H](NC(=O)[C@H](N)Cc1ccc(O)cc1)C(=O)N[C@H](CC(=O)O)C(=O)N[C@H](CCCCN)C(=O)N[C@H](CCCNC(=N)N)C(=O)O [FC-12738, (D-Tyr)-(D-Val)-(D-Asp)-(D-Lys)-(D-Arg)] (HELM PEPTIDE1{[dY].[dV].[dD].[dK].[dR]}$$$$V2.0) show?
345 ng/g
